Biological target: Cytochrome P450 2D6 (Homo sapiens)
Test: qHTS Assay for Inhibitors and Substrates of Cytochrome P450 2D6 (AID 891); note: nearly all actives have a fitted effect of over 60% in size
Settings: recombinant CYP2D6, luciferin-ME EGE luminescence; series mostly up to 57.1 µM
Inconclusive results are not listed. Activity calls are given as the source filed them. Calls come from the whole dose curve; as a rule, active = well fitted inhibition curve with a large enough effect; inconclusive = small, poorly fitted or top-dose-only effect; inactive = no such curve, though single readings can be large or run the other way.
I would appreciate it if you answered using one of these outcomes: active, inactive

COc1ccc(CNc2ncncc2-c2ccccc2CN(C)C)c(OC)c1 :: active

(Q) Assay outcome for NC(=O)c1ccc[n+]([C@@H]2O[C@H](COP(=O)([O-])OP(=O)(O)OC[C@H]3O[C@@H](n4cnc5c(N)ncnc54)[C@@H](O)[C@@H]3O)[C@@H](O)[C@@H]2O)c1 : what was it?
(A) inactive

(Q) Kindly provide the recorded test outcome for the following compound: CN1CCN([C@@H](c2ccccc2)c2ccc(Cl)cc2)CC1
(A) active

(Q) Hi team, can someone confirm the assay call for CC[N+](CC)(CC)CC[C@](O)(c1ccccc1)C1CCCCC1 ?
(A) active
